This collection of values is drawn from patent US11358969B2.

Assay: Mouse Pharmacokinetic Study (Example 1C)
Format: in vivo
Conditions: mouse; CD-1 mice, iv, 3 mg/kg; plasma; read-out: Vdss
ATTRIBUTE MEASURED: Vd (L/kg)
Response body: numeric value in L/kg, unit text excluded.

Examples with answers:
>>> assay_result("CC(C)c1cnn2c(N[C@@H]3CCc4[nH]c5ccccc5c4C3)nc(-c3cncc(F)c3)nc12")
24
>>> assay_result("CC(C)c1cnn2c(N[C@@H]3CCc4[nH]c5ccccc5c4C3)cc(-c3cncc(F)c3)nc12 [I-75a]")
13.7
>>> assay_result("CC(C)c1cnn2c(N[C@H]3CCc4[nH]ccc4C3)nc(-c3cncc(F)c3)nc12 [I-137a]")
6.6

Look up Vd: CC(C)c1cnn2c(N[C@@H]3CCc4[nH]ccc4C3)nc(-c3cncc(F)c3)nc12 [I-137b] 16.6

Look up Vd: O=C(c1cnn2c(NCCc3c[nH]c4ccccc34)cc(-c3cncc(F)c3)nc12)N1CCOCC1 2.7

Look up Vd: Fc1cncc(-c2cc(NCCc3c[nH]c4ccccc34)n3nccc3n2)c1 1.4

Look up Vd: CN(C)c1cnn2c(N[C@H]3Cc4ccc(O)cc4C3)cc(-c3cncc(F)c3)nc12 [I-204b] 4

Look up Vd: CC(C)c1cnn2c(NCCc3c[nH]c4ccccc34)cc(-c3cncc(F)c3)nc12 9.6

Look up Vd: Cc1cnn2c(N[C@@H]3CCc4[nH]c5ccccc5c4C3)nc(-c3cncc(F)c3)nc12 19.6

Look up Vd: Fc1cncc(-c2nc(N[C@@H]3CCc4[nH]c5ccccc5c4C3)n3ncc(Br)c3n2)c1 13.7

---

Consider the following compounds and their measured Mouse S9 Stability: % Remaining After 60 Minutes readings.
Assay: In Vitro Mouse liver S9 Metabolic Stability Assay (Example 1D)
Assay type: in vitro ADME
Settings: CD-1 mouse liver S9, 1 μM compound, 1 mg/mL S9 protein, 37° C., NADPH regenerating system, UDPGA, PAPS

>>> assay_result("CC(C)Oc1cc(NCCc2c[nH]c3ccccc23)nc(-c2cncc(F)c2)n1")
"26%"

Look up Mouse S9 Stability: % Remaining After 60 Minutes: Fc1cncc(-c2nc(N[C@@H]3CCc4[nH]c5ccccc5c4C3)cc(N3CCCC3)n2)c1 29%

Look up Mouse S9 Stability: % Remaining After 60 Minutes: CC(C)n1ccc2c(NCCc3c[nH]c4ccccc34)nc(-c3cncc(F)c3)nc21 0%

Look up Mouse S9 Stability: % Remaining After 60 Minutes: Fc1cncc(-c2cc(OC3CCCC3)nc(NCCc3c[nH]c4ccccc34)n2)c1 11%

---

Assay: Mouse Pharmacokinetic Study (Example 1C)
Format: in vivo
Details: mouse; CD-1 mice, iv, 3 mg/kg; plasma
ATTRIBUTE MEASURED: AUC(0-inf) (ng·h/mL)
Response body: numeric value in ng·h/mL, unit text excluded.

Examples with answers:
>>> assay_result("N#Cc1cnn2c(N[C@@H]3CCc4[nH]c5ccccc5c4C3)nc(-c3cncc(F)c3)nc12 [I-130]")
1270
>>> assay_result("Cc1cnn2c(N[C@@H]3CCc4[nH]c5ccccc5c4C3)nc(-c3cncc(F)c3)nc12 [I-201]")
1330
>>> assay_result("CN(C)c1cnn2c(N[C@@H]3CCc4[nH]c5ccccc5c4C3)nc(-c3cncc(F)c3)nc12 [I-129]")
1620

Look up AUC(0-inf): CC(C)c1cnn2c(N[C@@H]3CCc4[nH]c5ccccc5c4C3)nc(-c3cncc(F)c3)nc12 [I-40] 1210

Look up AUC(0-inf): Fc1cncc(-c2cc(NCCc3c[nH]c4ccccc34)n3nccc3n2)c1 [I-103] 1140

Look up AUC(0-inf): C[C@H](O)c1cnn2c(N[C@@H]3CCc4[nH]c5ccccc5c4C3)nc(-c3cncc(F)c3)nc12 [I-118] 368

Look up AUC(0-inf): Fc1cncc(-c2nc(N[C@@H]3CCc4[nH]c5ccccc5c4C3)n3ncc(Br)c3n2)c1 [I-154] 3030
